Exercise: state measured cell killing Span, RPMI-6666 (HL) cells for each of the binders provided.
target: CD74 (human), P04233; experiment: cell-based or functional assay
Sequence (P04233 whole entry): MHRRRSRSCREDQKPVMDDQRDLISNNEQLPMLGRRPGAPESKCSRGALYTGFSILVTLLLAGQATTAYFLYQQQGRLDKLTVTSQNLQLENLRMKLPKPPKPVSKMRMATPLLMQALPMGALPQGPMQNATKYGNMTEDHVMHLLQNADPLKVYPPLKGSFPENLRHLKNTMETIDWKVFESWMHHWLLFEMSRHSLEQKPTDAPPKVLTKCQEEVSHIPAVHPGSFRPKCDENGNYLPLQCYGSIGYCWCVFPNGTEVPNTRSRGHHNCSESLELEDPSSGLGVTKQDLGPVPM
Numbers only, in %.

[[record]]
binder = "Conjugate E (anti-CD74 IgG-PEG4-MMAF conjugate) (antibody, V domains shown, here or on the partner: modified amino acid residue 30 (pAMF) according to Example 2, position not stated for this conjugate, linked to PEG4-MMAF) VH: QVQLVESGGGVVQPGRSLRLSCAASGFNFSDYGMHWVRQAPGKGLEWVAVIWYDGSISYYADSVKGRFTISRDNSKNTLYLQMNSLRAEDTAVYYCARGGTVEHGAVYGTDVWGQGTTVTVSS VL: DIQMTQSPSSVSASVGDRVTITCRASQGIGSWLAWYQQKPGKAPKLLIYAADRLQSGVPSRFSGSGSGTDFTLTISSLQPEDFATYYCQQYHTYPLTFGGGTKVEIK"
quantitative_result = 80


Alright, here's another binder for you.
Just so you know, measured cell killing Span, RPMI-6666 (HL) cells for Conjugate F (anti-CD74 IgG-PEG4-MMAE conjugate) (antibody, V domains shown, here or on the partner: modified amino acid residue 30 (pAMF) according to Example 2, position not stated for this conjugate, linked to PEG4-MMAE) VH: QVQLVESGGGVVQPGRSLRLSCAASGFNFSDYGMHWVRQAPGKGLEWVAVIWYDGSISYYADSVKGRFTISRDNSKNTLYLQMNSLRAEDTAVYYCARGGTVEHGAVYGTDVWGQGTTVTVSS VL: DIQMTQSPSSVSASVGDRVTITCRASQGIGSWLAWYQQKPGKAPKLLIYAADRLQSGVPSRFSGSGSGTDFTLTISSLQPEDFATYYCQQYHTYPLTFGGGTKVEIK came out at 82

Data provenance is patent US20200207859A1.
